- target-or-system: Bcr/Abl fusion protein (Homo sapiens) (UniProt P00519+P11274)
- Sequence (P00519 whole entry, looked up, the tested form may be a part): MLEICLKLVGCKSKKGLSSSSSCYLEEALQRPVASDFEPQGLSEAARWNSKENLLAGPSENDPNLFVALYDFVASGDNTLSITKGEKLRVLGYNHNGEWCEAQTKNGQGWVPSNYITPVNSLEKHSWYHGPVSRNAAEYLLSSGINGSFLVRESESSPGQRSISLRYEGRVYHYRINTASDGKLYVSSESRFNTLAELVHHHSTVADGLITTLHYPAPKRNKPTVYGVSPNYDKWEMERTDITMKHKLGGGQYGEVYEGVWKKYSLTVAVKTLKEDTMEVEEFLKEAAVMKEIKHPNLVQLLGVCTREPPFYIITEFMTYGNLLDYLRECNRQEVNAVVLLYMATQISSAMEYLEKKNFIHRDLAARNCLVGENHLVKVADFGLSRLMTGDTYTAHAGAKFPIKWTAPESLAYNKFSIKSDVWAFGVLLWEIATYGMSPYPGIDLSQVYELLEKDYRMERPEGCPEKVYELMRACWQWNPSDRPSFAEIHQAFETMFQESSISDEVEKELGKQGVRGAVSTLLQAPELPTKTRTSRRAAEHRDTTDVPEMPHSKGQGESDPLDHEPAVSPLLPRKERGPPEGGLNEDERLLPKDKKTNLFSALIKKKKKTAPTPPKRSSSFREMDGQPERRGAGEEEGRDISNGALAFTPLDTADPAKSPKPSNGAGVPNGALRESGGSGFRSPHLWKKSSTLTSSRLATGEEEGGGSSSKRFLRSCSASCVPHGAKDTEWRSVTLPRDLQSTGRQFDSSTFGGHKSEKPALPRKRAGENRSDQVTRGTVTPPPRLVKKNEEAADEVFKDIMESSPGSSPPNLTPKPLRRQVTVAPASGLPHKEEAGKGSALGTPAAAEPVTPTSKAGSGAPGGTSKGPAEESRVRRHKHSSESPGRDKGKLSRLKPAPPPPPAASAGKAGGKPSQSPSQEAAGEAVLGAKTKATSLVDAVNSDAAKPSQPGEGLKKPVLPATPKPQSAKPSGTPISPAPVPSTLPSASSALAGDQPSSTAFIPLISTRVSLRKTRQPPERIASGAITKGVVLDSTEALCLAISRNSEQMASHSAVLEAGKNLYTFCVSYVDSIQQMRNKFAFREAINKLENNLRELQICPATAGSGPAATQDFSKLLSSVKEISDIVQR
- Sequence (P11274 whole entry, looked up, the tested form may be a part): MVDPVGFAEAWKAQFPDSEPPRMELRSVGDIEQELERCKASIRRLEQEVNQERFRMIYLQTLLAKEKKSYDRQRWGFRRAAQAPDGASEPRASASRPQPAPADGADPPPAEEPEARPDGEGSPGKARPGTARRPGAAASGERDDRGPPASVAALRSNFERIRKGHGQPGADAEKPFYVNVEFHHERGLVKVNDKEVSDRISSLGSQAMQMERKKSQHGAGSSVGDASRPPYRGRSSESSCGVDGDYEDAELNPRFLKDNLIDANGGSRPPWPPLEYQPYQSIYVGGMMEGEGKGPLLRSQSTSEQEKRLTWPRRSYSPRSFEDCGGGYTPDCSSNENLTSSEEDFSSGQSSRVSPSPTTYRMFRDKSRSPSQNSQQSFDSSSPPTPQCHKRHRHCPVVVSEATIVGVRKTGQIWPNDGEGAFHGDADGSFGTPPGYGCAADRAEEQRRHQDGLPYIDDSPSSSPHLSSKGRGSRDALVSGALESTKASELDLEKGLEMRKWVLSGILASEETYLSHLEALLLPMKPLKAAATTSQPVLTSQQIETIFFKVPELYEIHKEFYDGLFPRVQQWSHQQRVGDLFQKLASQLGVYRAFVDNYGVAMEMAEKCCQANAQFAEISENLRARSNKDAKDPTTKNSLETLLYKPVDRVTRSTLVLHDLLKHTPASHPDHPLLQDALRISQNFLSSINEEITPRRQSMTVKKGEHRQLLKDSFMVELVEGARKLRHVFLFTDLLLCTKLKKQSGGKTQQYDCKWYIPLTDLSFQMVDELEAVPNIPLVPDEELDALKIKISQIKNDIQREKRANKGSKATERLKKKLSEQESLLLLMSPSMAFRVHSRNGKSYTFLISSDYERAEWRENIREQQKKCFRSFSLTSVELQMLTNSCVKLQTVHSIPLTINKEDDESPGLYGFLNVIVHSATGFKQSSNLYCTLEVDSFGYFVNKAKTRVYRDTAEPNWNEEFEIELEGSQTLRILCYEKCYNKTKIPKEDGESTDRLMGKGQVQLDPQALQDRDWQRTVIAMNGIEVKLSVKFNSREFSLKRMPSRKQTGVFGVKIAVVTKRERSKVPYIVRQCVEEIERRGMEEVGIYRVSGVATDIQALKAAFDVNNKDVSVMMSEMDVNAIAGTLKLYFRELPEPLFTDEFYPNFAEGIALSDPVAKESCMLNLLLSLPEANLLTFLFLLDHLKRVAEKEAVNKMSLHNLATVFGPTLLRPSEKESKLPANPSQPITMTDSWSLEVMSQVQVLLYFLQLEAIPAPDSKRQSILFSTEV
- protocol-text: Ratio of peptide phosphorylation by Bcr-Abl and c-Abl protein tyrosine kinases
- Type: protein assay
Peptide text beside a SMILES is read from it.
measure-name: Ratio
Answers are plain numbers.

Before answering, review these 5 worked examples.
>  <molecule>
CC[C@H](C)[C@H](NC(=O)[C@H](CCCN=C(N)N)NC(=O)[C@@H](N)CCC(=O)O)C(=O)N[C@@H](Cc1ccc(O)cc1)C(=O)N[C@@H](C)C(=O)N[C@@H](CCCN=C(N)N)C(=O)N[C@H](C(=O)N[C@@H](CCCCN)C(=O)O)[C@@H](C)O (H-ERIYARTK-OH)

>  <measure-name>
Ratio

>  <numeric-value>
6.79

$$$$
>  <molecule>
CC[C@H](C)[C@H](NC(=O)[C@H](CCC(=O)O)NC(=O)[C@H](CC(=O)O)NC(=O)[C@H](Cc1ccc(O)cc1)NC(=O)[C@@H](NC(=O)[C@H](CCC(=O)O)NC(=O)[C@@H](N)CCC(=O)O)[C@@H](C)CC)C(=O)N[C@@H](Cc1ccc(O)cc1)C(=O)O (H-EEIYDEIY-OH)

>  <measure-name>
Ratio

>  <numeric-value>
3.44

$$$$
>  <molecule>
CC[C@H](C)[C@H](NC(=O)[C@H](Cc1c[nH]cn1)NC(=O)[C@@H](N)CCC(=O)O)C(=O)N[C@@H](Cc1ccc(O)cc1)C(=O)N[C@@H](Cc1c[nH]cn1)C(=O)N[C@@H](CCCN=C(N)N)C(=O)N[C@@H](Cc1c[nH]cn1)C(=O)N[C@@H](CCSC)C(=O)O (H-EHIYHRHM-OH)

>  <measure-name>
Ratio

>  <numeric-value>
8.27

$$$$
>  <molecule>
CC[C@H](C)[C@H](NC(=O)[C@H](CCC(=O)O)NC(=O)[C@H](Cc1ccc(O)cc1)NC(=O)[C@@H](NC(=O)[C@H](CC(=O)O)NC(=O)[C@@H](N)CC(=O)O)[C@@H](C)CC)C(=O)N[C@@H](Cc1ccc(O)cc1)C(=O)N[C@@H](Cc1c[nH]c2ccccc12)C(=O)O (H-DDIYEIYW-OH)

>  <measure-name>
Ratio

>  <numeric-value>
4.92

$$$$
>  <molecule>
CC[C@H](C)[C@H](NC(=O)[C@H](CCC(=O)O)NC(=O)[C@@H](N)Cc1ccc(O)cc1)C(=O)N[C@@H](Cc1ccc(O)cc1)C(=O)N[C@@H](CC(=O)O)C(=O)N[C@@H](Cc1ccc(O)cc1)C(=O)N[C@@H](Cc1ccc(O)cc1)C(=O)N[C@H](C(=O)O)C(C)C (H-YEIYDYYV-OH)

>  <measure-name>
Ratio

>  <numeric-value>
2.91

$$$$

Consider the following items and state reported Ratio for each.
1. CC[C@H](C)[C@H](NC(=O)[C@H](CCCN=C(N)N)NC(=O)[C@@H](N)CC(C)C)C(=O)N[C@@H](Cc1ccc(O)cc1)C(=O)N[C@@H](CCC(=O)O)C(=O)N[C@@H](CCCN=C(N)N)C(=O)N1CCC[C@H]1C(=O)N[C@@H](CCCN=C(N)N)C(=O)O (H-LRIYERPR-OH)
2. CC[C@H](C)[C@H](NC(=O)[C@H](Cc1ccc(O)cc1)NC(=O)[C@H](CC(=O)O)NC(=O)[C@H](Cc1ccc(O)cc1)NC(=O)[C@@H](NC(=O)[C@H](CCC(=O)O)NC(=O)[C@@H](N)Cc1ccc(O)cc1)[C@@H](C)CC)C(=O)N[C@@H](CCC(=O)O)C(=O)O (H-YEIYDYIE-OH)

1. 8.73
2. 2.29

====

- target-or-system: UniProt:P00519
- protocol-text: Vmax/Km value for peptide phosphorylation by c-Abl protein tyrosine kinase
Peptide text beside a SMILES is read from it.
Assignment: determine reported Vmax / Km (10^-9 L min-1) for the given compounds.
One number for each entry.

As a guide, the following entries are already answered.
>  <compound>
CC[C@H](C)[C@H](NC(=O)[C@H](CCC(=O)O)NC(=O)[C@H](CC(=O)O)NC(=O)[C@H](Cc1ccc(O)cc1)NC(=O)[C@@H](NC(=O)[C@H](CCC(=O)O)NC(=O)[C@@H](N)CCC(=O)O)[C@@H](C)CC)C(=O)N[C@@H](Cc1ccc(O)cc1)C(=O)O (H-EEIYDEIY-OH)

>  <measure-name>
Vmax / Km (10^-9 L min-1)

>  <numeric-value>
3.75

$$$$
>  <compound>
CC[C@H](C)[C@H](NC(=O)[C@H](CCC(=O)O)NC(=O)[C@@H](N)CCC(=O)O)C(=O)N[C@@H](Cc1ccc(O)cc1)C(=O)N[C@@H](Cc1ccc(O)cc1)C(=O)N[C@@H](Cc1ccc(O)cc1)C(=O)N[C@H](C(=O)N[C@@H](Cc1c[nH]cn1)C(=O)O)C(C)C (H-EEIYYYVH-OH)

>  <measure-name>
Vmax / Km (10^-9 L min-1)

>  <numeric-value>
2.38

$$$$
>  <compound>
CC[C@H](C)[C@H](NC(=O)[C@H](CCCN=C(N)N)NC(=O)[C@@H](N)CCC(=O)O)C(=O)N[C@@H](Cc1ccc(O)cc1)C(=O)N[C@@H](C)C(=O)N[C@@H](CCCN=C(N)N)C(=O)N[C@H](C(=O)N[C@@H](CCCCN)C(=O)O)[C@@H](C)O (H-ERIYARTK-OH)

>  <measure-name>
Vmax / Km (10^-9 L min-1)

>  <numeric-value>
2.47

$$$$
>  <compound>
CC[C@H](C)[C@H](NC(=O)[C@H](CCC(=O)O)NC(=O)[C@@H](N)CCC(=O)O)C(=O)N[C@@H](Cc1ccc(O)cc1)C(=O)N[C@@H](C)C(=O)N[C@@H](CCC(=O)O)C(=O)N[C@@H](Cc1c[nH]c2ccccc12)C(=O)N[C@@H](Cc1ccccc1)C(=O)O (H-EEIYAEWF-OH)

>  <measure-name>
Vmax / Km (10^-9 L min-1)

>  <numeric-value>
14

$$$$
>  <compound>
CC[C@H](C)[C@H](NC(=O)[C@H](CCC(=O)O)NC(=O)[C@@H](N)CCC(=O)O)C(=O)N[C@@H](Cc1ccc(O)cc1)C(=O)N[C@@H](CC(=O)O)C(=O)N[C@@H](Cc1ccc(O)cc1)C(=O)N[C@@H](C)C(=O)N[C@@H](Cc1ccc(O)cc1)C(=O)O (H-EEIYDYAY-OH)

>  <measure-name>
Vmax / Km (10^-9 L min-1)

>  <numeric-value>
7.46

$$$$

Entry CC[C@H](C)[C@H](NC(=O)[C@H](CCC(=O)O)NC(=O)[C@@H](N)CCC(=O)O)C(=O)N[C@@H](Cc1ccc(O)cc1)C(=O)N[C@@H](CCC(=O)O)C(=O)N[C@@H](CCC(=O)O)C(=O)N1CCC[C@H]1C(=O)N[C@@H](Cc1ccc(O)cc1)C(=O)O (H-EEIYEEPY-OH) ; Vmax / Km (10^-9 L min-1) = 12.1

====

- target-or-system: Bcr/Abl fusion protein (Homo sapiens) (UniProt P00519+P11274)
- protocol-text: Vmax/Km value for peptide phosphorylation by Bcr-Abl protein tyrosine kinase
- Type: protein assay
Peptide text beside a SMILES is read from it.
For each of the molecules below, state its Vmax / Km (10^-9 L min-1).
Give bare numbers.

Please review the entries below; each comes with its answer.
>  <molecule>
CC[C@H](C)[C@H](NC(=O)[C@H](CCC(=O)O)NC(=O)[C@@H](N)CCC(=O)O)C(=O)N[C@@H](Cc1ccc(O)cc1)C(=O)N[C@@H](Cc1ccc(O)cc1)C(=O)N[C@@H](Cc1ccc(O)cc1)C(=O)N[C@H](C(=O)N[C@@H](Cc1c[nH]cn1)C(=O)O)C(C)C (H-EEIYYYVH-OH)

>  <target-or-system>
Bcr/Abl fusion protein (Homo sapiens) (UniProt P00519+P11274)

>  <Vmax / Km (10^-9 L min-1)>
32.9

$$$$
>  <molecule>
CC[C@H](C)[C@H](NC(=O)[C@H](CCC(=O)O)NC(=O)[C@H](CC(=O)O)NC(=O)[C@H](Cc1ccc(O)cc1)NC(=O)[C@@H](NC(=O)[C@H](CCC(=O)O)NC(=O)[C@@H](N)CCC(=O)O)[C@@H](C)CC)C(=O)N[C@@H](Cc1ccc(O)cc1)C(=O)O (H-EEIYDEIY-OH)

>  <target-or-system>
Bcr/Abl fusion protein (Homo sapiens) (UniProt P00519+P11274)

>  <Vmax / Km (10^-9 L min-1)>
17.1

$$$$
>  <molecule>
CC[C@H](C)[C@H](NC(=O)[C@H](CCC(=O)O)NC(=O)[C@@H](N)CCC(=O)O)C(=O)N[C@@H](Cc1ccc(O)cc1)C(=O)N[C@@H](C)C(=O)N[C@@H](CCC(=O)O)C(=O)N[C@@H](Cc1c[nH]c2ccccc12)C(=O)N[C@@H](Cc1ccccc1)C(=O)O (H-EEIYAEWF-OH)

>  <target-or-system>
Bcr/Abl fusion protein (Homo sapiens) (UniProt P00519+P11274)

>  <Vmax / Km (10^-9 L min-1)>
97.6

$$$$
>  <molecule>
CC[C@H](C)[C@H](NC(=O)[C@H](CCCN=C(N)N)NC(=O)[C@@H](N)CCC(=O)O)C(=O)N[C@@H](Cc1ccc(O)cc1)C(=O)N[C@@H](C)C(=O)N[C@@H](CCCN=C(N)N)C(=O)N[C@H](C(=O)N[C@@H](CCCCN)C(=O)O)[C@@H](C)O (H-ERIYARTK-OH)

>  <target-or-system>
Bcr/Abl fusion protein (Homo sapiens) (UniProt P00519+P11274)

>  <Vmax / Km (10^-9 L min-1)>
42.2

$$$$

CC[C@H](C)[C@H](NC(=O)[C@H](CCC(=O)O)NC(=O)[C@@H](N)CCC(=O)O)C(=O)N[C@@H](Cc1ccc(O)cc1)C(=O)N[C@@H](CCC(=O)O)C(=O)N[C@@H](CCC(=O)O)C(=O)N1CCC[C@H]1C(=O)N[C@@H](Cc1ccc(O)cc1)C(=O)O (H-EEIYEEPY-OH) on Bcr/Abl fusion protein (Homo sapiens) (UniProt P00519+P11274) gives Vmax / Km (10^-9 L min-1) = 98.8
